Hey, just so you know, these numbers are from ChEMBL document CHEMBL1961873.

target: G protein-coupled receptor kinase 6 (Homo sapiens); conditions: at 1 µM;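 further: values are averaged percent inhibition of GRK6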
Outcome: yes (1) for inhibition of at least 3%; no (0) for anything lower.

Use the examples below as a reference point.
compound-string | assigned-label
NS(=O)(=O)c1cccc(-c2ccc3c(NC(=O)C4CC4)n[nH]c3c2)c1 | no (0)
Cc1nnc(-c2ccc(C)c(-c3ccc(C(=O)Nc4cccc(C#N)c4)cc3)c2)o1 | yes (1)
Cc1nn(C)c2cc(N(C)c3ccnc(Nc4cccc(S(N)(=O)=O)c4)n3)ccc12 | yes (1)
Nc1ncnc2occ(-c3ccc(NC(=O)Nc4cccc(C(F)(F)F)c4)cc3)c12 | no (0)
O=C1NC(=O)C(N2CCc3ccccc32)=C1c1ccc(Cl)cc1 | yes (1)
Cc1ccc(NC(=O)c2ccnc(N3CCCC3)c2)cc1-c1ccc(C(=O)NCC2CC2)cc1 | no (0)
CCn1c(-c2nonc2N)nc2c(N3CCCC3)nccc21 | no (0)
CN1CCC(C(=O)Nc2n[nH]c3nnc(-c4ccccc4)cc23)CC1 | yes (1)
COc1ccc(-c2ccncc2)cc1C(N)=O | yes (1)
COC(=O)Nc1nc2cc(Oc3cccc(NC(=O)Nc4cc(C(F)(F)F)ccc4F)c3)ccc2[nH]1 | no (0)

Lookup: Kindly determine if inhibition recorded for CCn1c(-c2nonc2N)nc2cnc(Oc3cccc(NC(=O)c4ccc(OCCN5CCOCC5)cc4)c3)cc21 is above or exactly 3%.
Found: yes (1)

###

target: Ephrin type-B receptor 3 (Homo sapiens) (UniProt P54753); settings: at 0.1 µM;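 further: reported value is the mean percent inhibition of EPHB3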
Sequence (P54753 whole entry): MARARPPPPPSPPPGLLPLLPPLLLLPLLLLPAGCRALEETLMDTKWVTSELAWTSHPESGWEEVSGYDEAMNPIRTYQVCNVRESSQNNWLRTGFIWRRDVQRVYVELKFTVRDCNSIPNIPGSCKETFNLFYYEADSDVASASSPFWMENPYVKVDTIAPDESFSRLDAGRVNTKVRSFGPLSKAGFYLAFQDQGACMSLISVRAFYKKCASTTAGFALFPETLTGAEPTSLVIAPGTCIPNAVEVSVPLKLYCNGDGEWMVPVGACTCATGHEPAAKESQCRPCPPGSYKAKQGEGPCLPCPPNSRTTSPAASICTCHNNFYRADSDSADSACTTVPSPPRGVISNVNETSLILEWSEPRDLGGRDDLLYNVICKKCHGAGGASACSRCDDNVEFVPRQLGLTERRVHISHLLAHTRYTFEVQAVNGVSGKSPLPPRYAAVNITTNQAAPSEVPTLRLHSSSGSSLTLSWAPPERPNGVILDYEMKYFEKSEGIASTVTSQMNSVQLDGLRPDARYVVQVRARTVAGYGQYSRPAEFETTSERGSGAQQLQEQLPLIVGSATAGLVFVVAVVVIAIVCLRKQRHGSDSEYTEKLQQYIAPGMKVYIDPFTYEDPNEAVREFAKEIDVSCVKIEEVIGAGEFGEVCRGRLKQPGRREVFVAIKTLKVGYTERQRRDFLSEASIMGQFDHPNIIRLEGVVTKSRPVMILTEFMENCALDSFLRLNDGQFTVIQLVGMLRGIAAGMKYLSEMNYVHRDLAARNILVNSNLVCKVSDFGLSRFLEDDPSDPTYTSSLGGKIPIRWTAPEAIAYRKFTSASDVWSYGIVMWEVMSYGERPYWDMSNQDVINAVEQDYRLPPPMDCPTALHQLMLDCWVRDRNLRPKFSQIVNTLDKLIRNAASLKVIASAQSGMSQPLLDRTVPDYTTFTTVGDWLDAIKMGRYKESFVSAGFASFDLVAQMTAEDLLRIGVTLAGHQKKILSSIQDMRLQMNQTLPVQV
measure: inhibition (%)
Give the value, in units of %, as a plain number.

Example entries and their recorded answers appear below.
molecule | measured-on | endpoint-value
Fc1cccc(COc2ccc(Nc3ncnc4sc(-c5cccs5)cc34)cc2Cl)c1 | Ephrin type-B receptor 3 (Homo sapiens) (UniProt P54753) | 0.38
CCn1c(-c2nonc2N)nc2cnc(Oc3cccc(NC(=O)c4ccc(OCCN5CCOCC5)cc4)c3)cc21 | Ephrin type-B receptor 3 (Homo sapiens) (UniProt P54753) | 6.88
Cn1cc(C=C2C(=O)Nc3cccnc32)c2ccccc21 | Ephrin type-B receptor 3 (Homo sapiens) (UniProt P54753) | 4.59
COc1ccc2cc(-c3c(-c4ccncc4)nc(-c4ccc([S+](C)[O-])cc4)n3C)ccc2c1 (configuration not stated) | Ephrin type-B receptor 3 (Homo sapiens) (UniProt P54753) | 5.38
COc1cc2c(cc1Nc1nc(N3CCc4ccccc43)c3cc[nH]c3n1)N(C(=O)CN(C)C)CC2 | Ephrin type-B receptor 3 (Homo sapiens) (UniProt P54753) | 2.82

Lookup: What value of inhibition has been recorded for this entry: O=C1NC(=O)C(c2ccccc2Cl)=C1Nc1cccc(O)c1
Found: 4.32

Lookup: What value of inhibition has been recorded for this entry: NS(=O)(=O)c1cccc(-c2ccc3c(NC(=O)C4CC4)n[nH]c3c2)c1
Found: -3.25

###

target: Protein kinase C beta type (Homo sapiens) (UniProt P05771); conditions: at 0.1 µM;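 further: measured against the PKC-beta2 splice variant, with values reported as mean percent inhibition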
Sequence (P05771 2-671 limits assumed): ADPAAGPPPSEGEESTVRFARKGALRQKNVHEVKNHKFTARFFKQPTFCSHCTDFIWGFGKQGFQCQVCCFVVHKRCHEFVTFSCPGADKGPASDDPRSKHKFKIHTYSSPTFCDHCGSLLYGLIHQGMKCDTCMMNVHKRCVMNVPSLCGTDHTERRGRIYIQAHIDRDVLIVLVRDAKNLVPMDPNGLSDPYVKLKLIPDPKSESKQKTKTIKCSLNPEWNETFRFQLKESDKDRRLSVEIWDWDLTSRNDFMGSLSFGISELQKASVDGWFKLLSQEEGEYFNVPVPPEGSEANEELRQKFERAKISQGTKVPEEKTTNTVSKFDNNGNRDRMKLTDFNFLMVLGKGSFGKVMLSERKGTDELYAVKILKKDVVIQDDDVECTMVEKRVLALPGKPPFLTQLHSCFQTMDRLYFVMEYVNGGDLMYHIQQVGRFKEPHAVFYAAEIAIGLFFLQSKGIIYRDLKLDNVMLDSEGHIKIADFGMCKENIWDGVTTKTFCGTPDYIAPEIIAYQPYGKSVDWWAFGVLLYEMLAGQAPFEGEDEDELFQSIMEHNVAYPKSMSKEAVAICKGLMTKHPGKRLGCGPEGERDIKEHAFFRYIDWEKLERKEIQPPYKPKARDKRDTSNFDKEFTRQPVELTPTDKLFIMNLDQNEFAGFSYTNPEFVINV
Description: GSK_PKIS: PKC-beta2 (splice variant) mean inhibition at 0.1 uM [Nanosyn]
Entries and their measured inhibition follow.
Give the value, in units of %, as a plain number.

compound-string | result-unit | endpoint-value
CCn1c(-c2nonc2N)nc2cnc(Oc3cccc(NC(=O)c4ccc(OCCN5CCOCC5)cc4)c3)cc21 | % | 11.6
NS(=O)(=O)c1ccc(N/N=C2\C(=O)Nc3ccc(C(=O)NCCc4c[nH]cn4)cc32)cc1 | % | 1.05

Turning now to a further record.
Lookup: What value of inhibition has been recorded for this entry: CS(=O)(=O)CCNCc1nc(-c2ccc3ncnc(Nc4ccc(F)c(Cl)c4)c3c2)cs1
Found: -0.23
